All figures here come from PubChem BioAssay (NCI).

- Assay: NCI Yeast Anticancer Drug Screen. Data for the mec2-1 strain (AID 157)
- Measurement conditions: S. cerevisiae mec2-1 strain, at 50.0 µM (retest, dose inferred, filed as 5.0), active compounds read high
This is part of a sample that, as a whole, favours compounds with a hit. Of some 79,000 tested, about 15% had one in any assay. Active and inactive are the calls of the source. No stated cut-off is given here; in the data, active means growth inhibition above about 70%; inactive means the rest.
Quantity measured: growth inhibition

Q: Report growth inhibition, nothing else, for this compound: COc1ccc([Se][Se]c2ccc(OC)cc2OC)c(OC)c1
A: 23% (inactive)

Next:
Q: Report growth inhibition, nothing else, for this compound: CC(=O)[O][Sn]([c]1ccccc1)([c]1ccccc1)[c]1ccccc1
A: 99% (active)

Q: Report growth inhibition, nothing else, for this compound: CC[C@@]1(O)C(=O)OCc2c1cc1n(c2=O)Cc2cc3c(OC)cccc3nc2-1
A: 92% (active)

Q: Report growth inhibition, nothing else, for this compound: COC1(O[C@H]2CC[C@H]3[C@@H]4CCC5=CC(=O)CC[C@]5(C)[C@H]4CC[C@]23C)CCCCC1
A: 2% (inactive)
